Task for the reader: assign each of the following binders its reported pIC50.
- tgt: T1, human chemokine receptor CCR1 (human, UniProt P32246 1-355)
- T1 construct: whole, on cells; also called HEK293-CCR1 transfectants
- T1 sequence (looked up): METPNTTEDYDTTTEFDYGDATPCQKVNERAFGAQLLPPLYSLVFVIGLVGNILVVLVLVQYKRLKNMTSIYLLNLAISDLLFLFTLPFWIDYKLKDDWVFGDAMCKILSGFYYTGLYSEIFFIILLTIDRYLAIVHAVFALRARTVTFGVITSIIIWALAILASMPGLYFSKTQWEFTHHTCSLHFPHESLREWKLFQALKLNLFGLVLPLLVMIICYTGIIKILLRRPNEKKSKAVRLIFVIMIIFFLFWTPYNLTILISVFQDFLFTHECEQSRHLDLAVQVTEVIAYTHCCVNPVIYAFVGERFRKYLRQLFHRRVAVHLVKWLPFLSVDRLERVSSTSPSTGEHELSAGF
- protocol summary: displacement of 125I-MIP-1α from HEK293-CCR1 cells, filter binding, 3 h at 4°C
- Method: The binding characteristics of CCL23 variants was compared in human CCR1 expressing cells. […] Reactions mixtures were aspirated onto PEI-treated GF/B glass filters using a cell harvester (Packard). […] Scintillant (MicroScint-10; 35 μl) was added to dried filters and the filiters counted in a Packard Topcount scintillation counter. Data were analyzed and plotted using Prism software (GraphPad Software, San Diego, Calif.).
In simple prose, pIC50 is minus the logarithm base ten of a concentration in moles per litre.

QUERY: Tell us which pIC50 value is on record for CKβ8(1-99) (ligand, Human recombinant chemokine bought from R&D Systems; also called CCL23 variant; CKβ (1-99)) RVTKDAETEFMMSKLPLENPVLLDRFHATSADCCISYTPRSIPCSLLESYFETNSECSKPGVIFLTKKGRRFCANPSDKQVQVCMRMLKLDTRIKTRKN
RESULT: 7.19

QUERY: Tell us which pIC50 value is on record for CKβ8(25-99) (ligand, Human recombinant chemokine bought from R&D Systems; also called CCL23 variant; CKβ (25-99)) RFHATSADCCISYTPRSIPCSLLESYFETNSECSKPGVIFLTKKGRRFCANPSDKQVQVCMRMLKLDTRIKTRKN
RESULT: 8.87

QUERY: Tell us which pIC50 value is on record for CKβ8-1(25-116) (ligand, Human recombinant chemokine bought from R&D Systems; NH2-terminal truncated form of CKβ8-1; also called CCL23 variant) MLWRRKIGPQMTLSHAAGFHATSADCCISYTPRSIPCSLLESYFETNSECSKPGVIFLTKKGRRFCANPSDKQVQVCMRMLKLDTRIKTRKN
RESULT: 6.95
